# study-system: SARS-CoV-2 spike (S) protein (SARS-CoV-2, UniProt P0DTC2 14-1208)
reported-metric: Kd (nM)

{"binder": "antibody 356 (antibody, V domains shown) VH: QVQLVQSGAEVKKPGASVKVSCKASGYTFTSYGISWVRQAPGQGLEWMGWISAYHGNTNYAQKLQGRVTMTTDTSTSTAYMELRSLRSDDTAVYYCARVGLWWLGHADAFDIWGQGTMVTVSS VL: DIQMTQSPSSLSASVGDRVTITCRASQGIRNDLGWYQQKPGKAPKRLIYAASSLQSGVPSRFSGSGSGTEFTLTISSLQPEDFATYYCLQHNSYPLTFGGGTKVEIK", "measurement-unit": "nM", "measured-result": 3.65}
